# ASSAY_TEXT: Cassette bioavailability i.v., i.p., p.o. (blood and organ concentrations by HPLC-MS/MS)
# Assay type: in vivo, C57BL/6 mice
# CONDITION_SET: female, C57BL/6, mouse, whole blood, ip, i.p. 2 mg/kg, 15 min after application
# Method: All samples were extracted with 3 or 6 volumes acetonitrile containing terbuthylazine as an internal standard (ACN) relative to either sample weight or volume. […] Quantification of analytes was performed on an Agilent 1260/1290 Infinity system fitted with an Agilent C18 Poroshell 120 column (4.6 x 50 mm, 2.7 µm) coupled to a triple quadrupole Sciex API 4000 MS/MS detector. […]
Reported Cmax values are given for each entry in this list.

COMPOUND | Cmax
CCCCc1nc2c(N)nc3ccccc3c2n1CCC1CCN(C(=O)CN(C)CC(=O)N(C)C2CC(C)OC(OC3C(C)C(OC4CC(C)(OC)C(O)C(C)O4)C(C)C(=O)OC(CC)C(C)(O)C(O)C(C)N(C)CC(C)CC3(C)O)C2O)CC1 (stereo not drawn) [A1-mac] | 299 nM
CCOCc1nc2c(N)nc3ccccc3c2n1CC(C)(C)O [RSQ, Resiquimod, reference compound] | 123 nM
CCCCc1nc2c(N)nc3ccccc3c2n1CC1CCN(C(=O)CN(C)CC(=O)N(C)[C@H]2C[C@@H](C)O[C@@H](O[C@@H]3[C@@H](C)[C@H](O[C@H]4C[C@@](C)(OC)[C@@H](O)[C@H](C)O4)[C@@H](C)C(=O)O[C@H](CC)[C@@](C)(O)[C@H](O)[C@@H](C)N(C)C[C@H](C)C[C@@]3(C)O)[C@@H]2O)CC1 [A2-mac] | 138 nM
